# Species on record: Cavia porcellus
# METHOD_SUMMARY: Effect on the contractile force of spontaneously beating atria from Reserpine-treated guinea pigs as percentage variation from the control at concentration of 3 x 10E-6 M
# Assay type: functional
OBSERVABLE: Variation (%)
Write the answer as a number in %, unit excluded.

// known answers, use as guide
# COMPOUND, VALUE_UNIT, Variation
data = [
    ("CN(C)c1nccc(C(F)(F)F)n1", "%", 2.47),
    ("Cc1[nH]c(=O)c(C#N)cc1-c1ccncc1 [MILRINONE]", "%", 0),
]

# context switch: different compound, same Variation
[ask] Find the recorded Variation belonging to "COC(=O)c1cnc(N(C)C)nc1Cc1ccccc1" and report it.
[reply] 5.83
